Where do these numbers come from? They come from PubChem BioAssay (NCI).

tested on: OVCAR-8 ovarian; assay: NCI-60 one-dose screen, 48 h; details: 10 µM unless noted
This is part of a sample that, as a whole, favours compounds with a hit. Of some 83,000 tested, about 20% had one in any assay. Activity calls are given as the source filed them. How the source made its calls: active means growth percent below 10; inactive means the rest.
Labels: T = active, F = inactive

COMPOUND | CLASSIFICATION
CS(=O)(=O)c1ccc(-c2nc3cc(Cl)ccc3n2CC(=O)NO)cc1 | F
CC(C)(C)CC(C)(C)Nc1c(-c2ccc(-c3ccccc3)cc2)nc2cnccn12 | F
COc1cc2nc(Nc3ccc(F)cc3)nc(N)c2cc1OC | F
O=[N+]([O-])c1ccccc1C(O)Cc1ccc2ccccc2n1 (stereo not given) | F
CC1=CC(=O)C(C(C)C)=CC1=Nc1cc(Br)c(O)c(Br)c1 | F
N=C(N)c1ccc(-c2ccc(-c3ccc(Cl)cn3)s2)cc1 | F
CCOc1ccc(-c2nc3ccc(-c4nc5ccc(N6CCN(C)CC6)cc5[nH]4)cc3[nH]2)cc1OCC | F
COc1ccc(C2CC(c3ccccc3)=NN2c2nc(C)c(C(C)=O)s2)cc1 (stereo not given) | F
O=C1C2=C(CCN(Cc3ccccc3)C2)N2CCN=C2N1Cc1ccc(F)cc1F | F
CC(=O)Nc1ccc2c(c1)Cc1c(F)cccc1-2 | F
NC(=O)CC1(O)C=C(Br)C(=O)C(Br)=C1 | F
C=C1C(=O)O[C@H]2[C@H]1CC/C(COC(=O)/C=C/C(=O)NCc1ccc(Cn3c(=O)sn(-c4ccccc4)c3=O)cc1)=C\CC[C@@]1(C)O[C@@H]21 | T
C=CCOc1cccc(/C=C2\SC(=Nc3ccc(O)cc3)NC2=O)c1 | F
CCN(CC)CCCNC(=O)c1ccc(N)cc1 | F
O=C1c2ccccc2C2(c3ccc(O)cc3)c3ccccc3Oc3cccc1c32 (stereo not given) | F
CSc1ccc(Cl)c(C(=O)Nc2sccc2C(N)=O)c1 | F
CC(C)(C)N1CC(OC(N)=O)C1 | F
CN(C)CCn1cc(-c2ccc3c(Nc4ccc(CC(=O)Nc5cccc(F)c5)cc4)ncnc3c2)cn1 | T
CCc1c(C(=O)N[C@@H]2c3cc(Cl)ccc3CC[C@@H]2O)[nH]c(C)c1C(C)=O | F
CCn1c(Sc2nnc(NC(=O)CCN3CCCC3)s2)nc2c1c(=O)n(C)c(=O)n2C | F
CCOC(=O)c1cnn2c(-c3ccc(Cl)cc3)nc(NCc3ccccc3)nc12 | F
Cn1cc(-c2ccc3ncc(-c4ccc(CC(=O)Nc5cc(C(C)(C)C)nn5C)cc4)cc3c2)cn1 | T
CCn1c(Sc2nnc(Nc3ccccc3)s2)nc2c1c(=O)n(C)c(=O)n2C | F
O=c1[nH]c(NCc2nnnn2-c2ccc(Br)cc2)nc2sc3c(c12)CCCC3 | F
Nc1ccc(CCCCc2ccccc2)c(Cl)c1 | F
O=C(O)C1C[C@](O)(c2ccc(F)cc2)[C@@H](c2ccc(F)cc2)O1 (stereo not given in full) | F
Clc1ccc(/C=N\N=c2\scc(-c3ccc(Cl)cc3)n2/N=C/c2ccc(Cl)cc2)cc1 | F
COc1ccc(Cn2cnc3cc(C(=O)Nc4cccc5ccccc45)ccc32)c(OC)c1 | F
CCCCCCCC/C=C\CCCCCCCC(=O)Oc1cccc2cccnc12 | F
COc1cc(C2C=C(c3cccc(NC(C)=O)c3)Nc3ncnn32)cc(OC)c1OC (stereo not given) | F
COC(=O)c1ccc(CSc2nnc(-c3ccncc3)o2)cc1 | F
CC(C)n1nc(C#Cc2cccc(O)c2)c2c(N)ncnc21 | T
C[C@]12CCC(=O)C[C@H]1CC[C@@H]1[C@@H]2CC[C@@]2(C)[C@H]1CC[C@]2(O)C(=O)CO | F
O=c1[nH]c(=O)n(C2CC(O)C(CO)O2)cc1CO (stereo not given) | F
CCOC(=O)c1c2c(c(C)n1C)-c1nn(Cc3ccc(OC)cc3)cc1CC2 | F
CN(C)CCC(O)(Cc1ccccc1)c1ccccc1 (stereo not given) | F
O=C(NC(=S)Nc1ccc(-c2nc3ccccc3[nH]2)cc1)c1ccc2ccccc2c1 | F
[2H]c1nc(Nc2ncc(F)c(-c3cc(F)c4nc(C)n(C(C)C)c4c3)n2)c([2H])c([2H])c1CN1CCN(C([2H])([2H])C([2H])([2H])[2H])CC1 | F
CC1(C)C(=O)/C(=C\c2cccnc2)C[C@]2(C)[C@H]3CC=C4[C@@H]5C[C@@](C)(C(=O)O)CC[C@]5(C)CC[C@@]4(C)[C@]3(C)CC[C@@H]12 | F
O=C(NCc1cn(Cc2cccc(Oc3ccccc3)c2)nn1)c1cccnc1NCc1ccc(Cl)cc1 | F
